Tested on: UACC-257 melanoma
Assay: NCI-60 one-dose screen, 48 h
Settings: 10 µM unless noted
The panel holds about 83,000 compounds, 20% with a hit somewhere; the sample as a whole holds those more often. Calls of active or inactive are those of the source. The calls were made as follows: active = growth percent below 10; inactive = the rest.
Labels: active, inactive

COMPOUND	ASSIGNED_CLASS
CCOc1ccc(C(C)=O)cc1NC(=O)c1cccc(-c2nnn(CC)n2)c1	inactive
O=C1C=CC(=O)N1c1ccc2c(c1)Cc1cc(F)ccc1-2	inactive
C=C(C)C1CC(O)C2(C)CCCC3C2C1CC(C)C3(C)CC/C(C)=C/C(O)C1CCC(=O)c2c(OC)cc(OC)cc21 (stereo not drawn)	inactive
O=S(=O)(Nc1ccc(OC(F)F)cc1)c1ccc(-c2cnc(C3CC3)o2)cc1	inactive
O=C1c2cc3c(cc2-c2c1c1ccc(Cl)cc1c(=O)n2CCCN1CCOCC1)OCO3	inactive
COc1cccc(-c2nn(C(C)(C)C)cc2-c2ccnc(NCCCNS(=O)(=O)c3ccc(C)cc3)c2)c1	inactive
CC1=C[C@H]2c3c(c(O)c(O)c4oc(-c5ccccc5)cc(=O)c34)[C@H](c3cc(O)c(O)c4oc(-c5ccccc5)cc(=O)c34)[C@H]2C(C)(C)C1	inactive
C#CCOc1ccc2ncnc(N3CCC(NC(=O)CCl)CC3)c2c1	inactive
O=C(COc1ccc(-c2nc3cc(Cl)c(Cl)cc3[nH]2)cc1)N=Nc1c(O)[nH]c2ccccc12	inactive
COc1ccc(C(=O)COc2ccc(/C=C3\COc4ccc(OC)cc4C3=O)cc2)cc1	inactive
N#Cc1cnn(-c2nc3c(Cl)cccc3s2)c1N	inactive
CN(Cc1cc(Cl)cc(Cl)c1O)Cc1cc(Cl)cc(Cl)c1O	inactive
CC[C@H]1OC(=O)[C@H](C)[C@@H](O[C@H]2C[C@@](C)(OC)[C@@H](O)[C@H](C)O2)[C@H](C)[C@@H](O[C@@H]2O[C@H](C)C[C@H](N(C)C)[C@H]2O)[C@](C)(O)C[C@H](C)CN(C)[C@H](C)[C@@H](O)[C@]1(C)O	inactive
CCC#CC[C@H](O)C/C=C1/C(=O)C=C[C@@H]1C/C=C\CCCC(=O)OC	active
C=CC(=O)Nc1cccc(Nc2nc(SC)nc(-c3cccc([N+](=O)[O-])c3)c2C#N)c1	inactive
O=C1OC(c2ccccc2)C(O)=C1c1ccccc1 (stereo not drawn)	inactive
COc1cccc(-c2nc(SCC(=O)Nc3ccc(C(=O)/C=C/c4ccc(OC)c(OC)c4)cc3)[nH]c(=O)c2C#N)c1	inactive
Cc1nn(-c2cc(=O)[nH]c3ccccc23)c(N)c1C#N	inactive

// data source = PubChem BioAssay (NCI)
